The values you see were collected from PubChem BioAssay (Tox21).

Test system: thyroid hormone receptor (rat, GH3 cells)
assay: qHTS assay to identify small molecule agonists of the thyroid receptor (TR) signaling pathway (AID 743066)
test context: GH3.TRE-Luc cells, TR agonist luciferase, 24 h; series mostly up to 83.9 µM
Records with an inconclusive call do not appear. The source made the active and inactive calls. The call rests on the fitted dose curve. Positions of bridges follow the written chain, without caps; N, C: chain ends. Non-standard residues stand in square brackets, D forms with d. Residues, ends and D or L forms follow the SMILES beside them. *: point of attachment. X2 = CC[C@H](C)CCCCC(=O)*; Dab = NCC[C@H](N)C(=O)O
Labels: active, inactive

compound	system	discrete label
CC(=O)N(CC(C)C(=O)O)c1c(I)cc(I)c(N)c1I (centres undefined)	thyroid hormone receptor (rat, GH3 cells)	inactive
CCCCCCCCCCCCCCCC(=O)O[C@@H]1CC(C)=C(/C=C/C(C)=C/C=C/C(C)=C/C=C/C=C(C)/C=C/C=C(C)/C=C/C2=C(C)C[C@@H](OC(=O)CCCCCCCCCCCCCCC)CC2(C)C)C(C)(C)C1	thyroid hormone receptor (rat, GH3 cells)	inactive
COc1ccccc1N1CCN(CCCC(=O)c2ccc(F)cc2)CC1	thyroid hormone receptor (rat, GH3 cells)	inactive
CC(=O)N[C@@H]([C@@H](O)[C@H](O)[C@H](O)CO)[C@@H](O)CC(=O)C(=O)O	thyroid hormone receptor (rat, GH3 cells)	inactive
COc1cc2c(cc1OC)CC(=O)N(CCCN(C)C[C@H]1Cc3cc(OC)c(OC)cc31)CC2	thyroid hormone receptor (rat, GH3 cells)	inactive
CC[C@H](C)CCCCC(=O)N[C@@H](CCN)C(=O)N[C@H](C(=O)N[C@@H](CCN)C(=O)N[C@H]1CCNC(=O)[C@@H]([C@H](C)O)NC(=O)[C@H](CCN)NC(=O)[C@H](CCN)NC(=O)[C@H](CC(C)C)NC(=O)[C@@H](CC(C)C)NC(=O)[C@H](CCN)NC1=O)[C@@H](C)O (X2-[Dab]T[Dab][Dab][Dab][dL]L[Dab][Dab][dT]; lactam 4-C)	thyroid hormone receptor (rat, GH3 cells)	inactive
N=C(N)c1ccc(OCCCOc2ccc(C(=N)N)cc2Br)c(Br)c1	thyroid hormone receptor (rat, GH3 cells)	inactive
O=C(O)[C@@H](O)[C@H](O)[C@H](O)[C@@H](O)C(=O)O (tested in a mixture with another compound)	thyroid hormone receptor (rat, GH3 cells)	inactive
CC(C)C(=O)OCC(=O)[C@@]12O[C@H](C3CCCCC3)O[C@@H]1C[C@H]1[C@@H]3CCC4=CC(=O)C=C[C@]4(C)[C@H]3[C@@H](O)C[C@@]12C	thyroid hormone receptor (rat, GH3 cells)	inactive
COc1cc(C)c(/C=C/C(C)=C/C=C/C(C)=C/C(=O)O)c(C)c1C	thyroid hormone receptor (rat, GH3 cells)	active
CS(=O)(=O)OCCCNCCCOS(C)(=O)=O	thyroid hormone receptor (rat, GH3 cells)	inactive
O=C(O)CCC/C=C\C[C@@H]1[C@@H](/C=C/[C@@H](O)COc2cccc(Cl)c2)[C@H](O)C[C@@H]1O	thyroid hormone receptor (rat, GH3 cells)	inactive
CN[C@@H]1[C@H](O[C@H]2[C@H](O[C@H]3[C@H](O)[C@@H](O)[C@H](N=C(N)N)[C@@H](O)[C@@H]3N=C(N)N)O[C@@H](C)[C@]2(O)C=O)O[C@@H](CO)[C@H](O)[C@H]1O	thyroid hormone receptor (rat, GH3 cells)	inactive
CC(C)c1nc(N(C)S(C)(=O)=O)nc(-c2ccc(F)cc2)c1/C=C/C(O)CC(O)CC(=O)O (centres undefined)	thyroid hormone receptor (rat, GH3 cells)	inactive
